The values you see were collected from PubChem BioAssay AID2060890.

Collected viability, T/C values appear next to each entry.
tested on: LG0703-F948-PDC complex spheroid viability; experiment: Anticancer human tumor LG0703-F948-PDC patient-derived lung adenocarcinoma cell line growth inhibition [RAS]; settings: second compound 0.00949 µM; first compound 0.0316 µM; stronger effect = lower value

molecule: CCN1CCN(Cc2ccc(Nc3ncc(F)c(-c4cc(F)c5nc(C)n(C(C)C)c5c4)n3)nc2)CC1 + CCn1c(-c2cccnc2C(C)OC)c2c3cc(ccc31)N1CCOC(CC(NC(=O)C(C(C)C)N(C)C(=O)C3(F)CCN(C(=O)C#CC(C)(C)N(C)C)CC3)C(=O)N3CCCC(N3)C(=O)OCC(C)(C)C2)C1
recordedMetric: viability, T/C
value: 93%

Note viability, T/C for the molecule shown: Cc1nc(N2CCC3(CC2)COC(C)C3N)c(CO)nc1Sc1ccnc(N)c1Cl (stereo not given) + CCn1c(-c2cc(N3CCN(C)CC3)cnc2C(C)OC)c2c3cc(ccc31)-c1csc(n1)CC(NC(=O)C1CC1C)C(=O)N1CCCC(N1)C(=O)OCC(C)(C)C2
26%

Note viability, T/C for the molecule shown: CC1(O)CCCC1n1c(=O)c(C(F)F)cc2cnc(NC3CCN(S(C)(=O)=O)CC3)nc21 (stereo not given) + CCn1c(-c2cccnc2C(C)OC)c2c3cc(ccc31)N1CCOC(CC(NC(=O)C(C(C)C)N(C)C(=O)C3(F)CCN(C(=O)C#CC(C)(C)N(C)C)CC3)C(=O)N3CCCC(N3)C(=O)OCC(C)(C)C2)C1
88.9%

Note viability, T/C for the molecule shown: CC(=O)OC12COC1CC(O)C1(C)C(=O)C(O)C3=C(C)C(OC(=O)C(O)C(NC(=O)OC(C)(C)C)c4ccccc4)CC(O)(C(OC(=O)c4ccccc4)C21)C3(C)C (stereo not given) + CCn1c(-c2cc(N3CCN(C)CC3)cnc2C(C)OC)c2c3cc(ccc31)-c1csc(n1)CC(NC(=O)C1CC1C)C(=O)N1CCCC(N1)C(=O)OCC(C)(C)C2
11.2%

Note viability, T/C for the molecule shown: C=CC(=O)N1CCN(c2nc(OCC3CCCN3C)nc3c(F)c(-c4nc(N)cc(C)c4C(F)(F)F)c(Cl)cc23)C(C)C1 (stereo not given) + CCn1c(-c2cc(N3CCN(C)CC3)cnc2C(C)OC)c2c3cc(ccc31)-c1csc(n1)CC(NC(=O)C1CC1C)C(=O)N1CCCC(N1)C(=O)OCC(C)(C)C2
27.9%

Note viability, T/C for the molecule shown: C=CC(=O)Nc1cc(Nc2nccc(-c3cn(C)c4ccccc34)n2)c(OC)cc1N(C)CCN(C)C + CCn1c(-c2cccnc2C(C)OC)c2c3cc(ccc31)N1CCOC(CC(NC(=O)C(C(C)C)N(C)C(=O)C3(F)CCN(C(=O)C#CC(C)(C)N(C)C)CC3)C(=O)N3CCCC(N3)C(=O)OCC(C)(C)C2)C1
22.3%

###

System: LG0703-F948-PDC complex spheroid viability
Experiment: Anticancer human tumor LG0703-F948-PDC cell line growth inhibition [RAS];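 note: spheroids exposed to agents for 7 days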;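 for viability, T/C: 100% = DMSO vehicle wells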
Settings: second compound 0.03 µM; first compound 0.0316 µM; stronger effect = lower value
Description: RAS pathway inhibitors in Combinations in Complex Spheroids A high-throughput screen of multi-cell type tumor spheroids was designed to identify active combinations of RAS pathway inhibitors and targeted small molecules. Complex spheroids include a stromal component modeled by human endothelial cells (HUVEC) and fibroblasts modeled by human mesenchymal stem cells (MSCs). […] Compounds. […] If the clinical Cmax for an agent had not been determined, the highest concentration tested was 10 microM. […]
recordedMetric: viability, T/C (%)
Write the number in % without appending the unit.

compound: C[C@@H](NC(=O)c1ncnc(N)c1Cl)c1ncc(C(=O)Nc2cc(C(F)(F)F)c(Cl)cn2)s1 + CCn1c(-c2cccnc2C(C)OC)c2c3cc(ccc31)N1CCOC(CC(NC(=O)C(C(C)C)N(C)C(=O)C3(F)CCN(C(=O)C#CC(C)(C)N(C)C)CC3)C(=O)N3CCCC(N3)C(=O)OCC(C)(C)C2)C1
testedSystem: LG0703-F948-PDC complex spheroid viability
value: 99.6

compound: C=CC(=O)Nc1cc(Nc2nccc(-c3cn(C)c4ccccc34)n2)c(OC)cc1N(C)CCN(C)C + CCn1c(-c2cccnc2C(C)OC)c2c3cc(ccc31)N1CCOC(CC(NC(=O)C(C(C)C)N(C)C(=O)C3(F)CCN(C(=O)C#CC(C)(C)N(C)C)CC3)C(=O)N3CCCC(N3)C(=O)OCC(C)(C)C2)C1
testedSystem: LG0703-F948-PDC complex spheroid viability
value: 26.6

compound: CCN1CCN(Cc2ccc(Nc3ncc(F)c(-c4cc(F)c5nc(C)n(C(C)C)c5c4)n3)nc2)CC1 + CCn1c(-c2cc(N3CCN(C)CC3)cnc2C(C)OC)c2c3cc(ccc31)-c1csc(n1)CC(NC(=O)C1CC1C)C(=O)N1CCCC(N1)C(=O)OCC(C)(C)C2
testedSystem: LG0703-F948-PDC complex spheroid viability
value: 14.7

Now, please, on to the next compound.
Note viability, T/C for the compound shown: CC(Nc1ccc2c(c1)OCCn1cc(N3C(=O)OCC3C(F)F)nc1-2)C(N)=O (centres undefined) + CCn1c(-c2cccnc2C(C)OC)c2c3cc(ccc31)N1CCOC(CC(NC(=O)C(C(C)C)N(C)C(=O)C3(F)CCN(C(=O)C#CC(C)(C)N(C)C)CC3)C(=O)N3CCCC(N3)C(=O)OCC(C)(C)C2)C1
100

###

tested on: LG0703-F948-PDC complex spheroid viability; test: Anticancer human tumor LG0703-F948-PDC cell line growth inhibition [RAS]; settings: second compound 0.003 µM; first compound 0.1 µM; stronger effect = lower value;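 note: spheroids exposed to agents for 7 days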;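 for viability, T/C: 100% = DMSO vehicle wells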
Label condition met when viability, T/C is strictly below 30%; at or above that, label condition not met.

compound: Cc1nc(N2CCC3(CC2)COC(C)C3N)c(CO)nc1Sc1ccnc(N)c1Cl (stereo not given) + CCn1c(-c2cccnc2C(C)OC)c2c3cc(ccc31)N1CCOC(CC(NC(=O)C(C(C)C)N(C)C(=O)C3(F)CCN(C(=O)C#CC(C)(C)N(C)C)CC3)C(=O)N3CCCC(N3)C(=O)OCC(C)(C)C2)C1
class: condition not met

Strictly below 30%: is that where viability, T/C of Cc1nc(N2CCC3(CC2)COC(C)C3N)c(CO)nc1Sc1ccnc(N)c1Cl (stereo not given) + CCn1c(-c2cc(N3CCN(C)CC3)cnc2C(C)OC)c2c3cc(ccc31)-c1csc(n1)CC(NC(=O)C1CC1C)C(=O)N1CCCC(N1)C(=O)OCC(C)(C)C2 sits?
condition met

Strictly below 30%: is that where viability, T/C of C=CC(=O)Nc1cc(Nc2nccc(-c3cn(C)c4ccccc34)n2)c(OC)cc1N(C)CCN(C)C + CCn1c(-c2cccnc2C(C)OC)c2c3cc(ccc31)N1CCOC(CC(NC(=O)C(C(C)C)N(C)C(=O)C3(F)CCN(C(=O)C#CC(C)(C)N(C)C)CC3)C(=O)N3CCCC(N3)C(=O)OCC(C)(C)C2)C1 sits?
condition met

Strictly below 30%: is that where viability, T/C of NC1c2ccccc2OC12CCN(c1cnc3c(N4CCCc5ncccc54)n[nH]c3n1)CC2 (stereo not given) + CCn1c(-c2cccnc2C(C)OC)c2c3cc(ccc31)N1CCOC(CC(NC(=O)C(C(C)C)N(C)C(=O)C3(F)CCN(C(=O)C#CC(C)(C)N(C)C)CC3)C(=O)N3CCCC(N3)C(=O)OCC(C)(C)C2)C1 sits?
condition not met

###

system: LG0703-F948-PDC complex spheroid viability; experiment: Anticancer human tumor LG0703-F948-PDC cell line growth inhibition [RAS]; settings: curve of first compound; second compound 3.16 µM;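 note: spheroids exposed to agents for 7 days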
recordedMetric: pIC50
Notebook: values listed as pIC50 are -log10 of the concentration (mol/L).

Take a look at these entries with their results.
compound: CC(C)NCC(C(=O)N1CCN(c2ncnc3c2C(C)CC3O)CC1)c1ccc(Cl)cc1 (stereo unspecified) + C#Cc1c(F)ccc2cc(O)cc(-c3ncc4c(N5CC6CCC(C5)N6)nc(OCC56CCCN5CC(F)C6)nc4c3F)c12
testedSystem: LG0703-F948-PDC complex spheroid viability
recordedMetric: pIC50
value: 7.23
//
compound: O=C(c1ccc(F)c(F)c1Nc1ccc(I)cc1F)N1CC(O)([C@@H]2CCCCN2)C1 + C#Cc1c(F)ccc2cc(O)cc(-c3ncc4c(N5CC6CCC(C5)N6)nc(OCC56CCCN5CC(F)C6)nc4c3F)c12
testedSystem: LG0703-F948-PDC complex spheroid viability
recordedMetric: pIC50
value: 8.11
//
compound: CCC(CC)c1cc(NC2CCC(N)C2)n2nccc2n1 (stereo unspecified) + C#Cc1c(F)ccc2cc(O)cc(-c3ncc4c(N5CC6CCC(C5)N6)nc(OCC56CCCN5CC(F)C6)nc4c3F)c12
testedSystem: LG0703-F948-PDC complex spheroid viability
recordedMetric: pIC50
value: 6.34
//
compound: Cc1nc(N2CCC3(CC2)COC(C)C3N)c(CO)nc1Sc1ccnc(N)c1Cl (stereo unspecified) + C#Cc1c(F)ccc2cc(O)cc(-c3ncc4c(N5CC6CCC(C5)N6)nc(OCC56CCCN5CC(F)C6)nc4c3F)c12
testedSystem: LG0703-F948-PDC complex spheroid viability
recordedMetric: pIC50
value: 7.49

Note pIC50 for the compound shown: CCc1c2c(nc3ccc(O)cc13)-c1cc3c(c(=O)n1C2)COC(=O)[C@]3(O)CC + C#Cc1c(F)ccc2cc(O)cc(-c3ncc4c(N5CC6CCC(C5)N6)nc(OCC56CCCN5CC(F)C6)nc4c3F)c12
7.49

Note pIC50 for the compound shown: CC(C)n1nc(-c2ccc3oc(N)nc3c2)c2c(N)ncnc21 + C#Cc1c(F)ccc2cc(O)cc(-c3ncc4c(N5CC6CCC(C5)N6)nc(OCC56CCCN5CC(F)C6)nc4c3F)c12
9.22
